The reported measurements were obtained from PubChem BioAssay (NCI).

Tested on: SNB-75 CNS
Experiment: NCI-60 one-dose screen, 48 h (100 = growth as untreated, 0 = no growth, -100 = all killed)
Details: 10 µM unless noted
The panel holds about 83,000 compounds, 20% with a hit somewhere; the sample as a whole holds those more often.
OBSERVATION_TYPE: growth (%)
Could you give me the number in %? Just the number is fine.

compound O=C(COc1ccc(-c2nc3cc(Cl)c(Cl)cc3[nH]2)cc1)N=Nc1c(O)[nH]c2ccccc12 , growth observed: -73.8

Record Nc1n[nH]c2ccc([C@@H]3Nc4ccc5[nH]ncc5c4[C@H]4C5C=CC(C5)[C@@H]34)cc12 (stereo partly drawn) . Reported growth: -9.96

Data point: O=C(CN1C(=O)/C(=C/c2ccc(Cl)cc2)SC1=S)NCCCN1CCOCC1 ; growth = 92.8

###

Test system: MDA-MB-435 melanoma
Assay: NCI-60 one-dose screen, 48 h
Settings: 10 µM unless noted
The panel holds about 83,000 compounds, 20% with a hit somewhere; the sample as a whole holds those more often. Activity calls are given as the source filed them. Rule for the calls: active = growth percent below 10; inactive = the rest.
// allowed return values: Yes for active, No for inactive

(Q) Please state the recorded outcome for this compound: O=C1/C(=C/c2ccc3c(c2)OCO3)SC(=S)N1CCc1ccc(O)cc1
(A) No

(Q) # lookup: test call for FC(F)(F)c1nc2c(NCc3ccc(-c4ccccc4)cc3)cccc2[nH]1
(A) No

(Q) For COc1ccc(/C=C\c2cc(OC)c(OC)c(OC)c2)cc1OC(=O)c1cccc(Cn2cc(CCOC(=O)[C@H](N)Cc3cn(C)c4ccccc34)nn2)c1 , what call appears in the results of this test?
(A) Yes

###

For each of the molecules below, state its growth.
System: MDA-MB-231 breast
Experiment: NCI-60 one-dose screen, 48 h (100 = growth as untreated, 0 = no growth, -100 = all killed)
Details: 10 µM unless noted
About 83,000 compounds went through this panel and 20% of them were active in at least one assay; those are over-represented in the sample as a whole. Active and inactive are the calls of the source. Rule for the calls: active = growth percent below 10; inactive = the rest.

Recorded growth (molecule O=S(=O)(Nc1ccc(OC(F)F)cc1)c1ccc(-c2cnc(C3CC3)o2)cc1 ): 70.2% (inactive)

Record summary for Oc1ccc(N=Cc2ccccc2O)cc1 : reported growth = 99.7% (inactive)

Form: molecule = CCCSc1ccc2nc(NC(=O)OC)[nH]c2c1 ; growth = 18.8% (inactive)

Lookup result for Cc1nc(/N=C(\N)NC(=O)Nc2cccc([N+](=O)[O-])c2)sc1C ; measured growth: 98.8% (inactive)

// CC1=C[C@H]2c3c(c(O)c(O)c4oc5cc(O)ccc5c(=O)c34)[C@H](c3cc(O)c(O)c4oc5cc(O)ccc5c(=O)c34)[C@H]2C(C)(C)C1 : growth value = 50.9% (inactive)

growth measured on COc1ccc(/C=C2\Oc3cc(OCCCCN4CCCC4)ccc3C2=O)cc1 = 91.3% (inactive)

Lab note: measured growth of CCOC(=O)c1sc2nc(-c3cccc(O)c3)nc(N3CCOCC3)c2c1C was 47.6% (inactive)

For this molecule ( Cc1cc(C)nc(SC2=C(Nc3cccc(Cl)c3)C(=O)N(Cc3ccccc3)C2=O)n1 ), measured growth is 61.2% [30 µM] (inactive)

growth in this record for COc1cc2c(cc1-c1c(C)noc1C)ncc1nc(C3CCC(F)(F)CC3)n([C@H](C)COC(F)F)c12 : 44.1% (inactive)

For reference, reported growth for CC(=O)Nc1ccc(-n2c(O)c(/C=N/NC(=O)Cc3ccccc3Nc3c(Cl)cccc3Cl)sc2=S)cc1 stands at 107% (inactive)

// recorded growth for Cc1ccc2c(C(C[N+](=O)[O-])c3ccccc3)c(-c3ccccc3)[nH]c2c1 (stereo not given) : 37.2% [9.5 µM] (inactive)

In plain terms, OCc1ccc(N2CCc3cccc(F)c3C2)cc1Cl has a documented growth of 107% [0.1 µM] (inactive)

# growth of CNc1ccc(-c2cc(=O)oc3ccc(Cl)cc23)cc1 = 16.2% (inactive)

Entry COc1cc2c(cc1-c1c(C)noc1C)ncc1nc(C3CCOCC3)n([C@H](C)COC(F)F)c12 ; growth = 46.3% (inactive)

CCOC(=O)n1cc(-c2nonc2-c2cn(C)c3ncccc23)c2ccccc21 has a reported growth of 63.8% (inactive)

Per the record, COc1ccc(-c2nc3ccc(-c4nc5ccc(N6CCN(C)CC6)cc5[nH]4)cc3[nH]2)cc1OC has growth of 82.9% (inactive)

growth reading for CCCCCCN(CCCCCC)CCC(O)c1ccc2ccccc2c1 (stereo not given) : 42.4% (inactive)

Consider CN1C(=O)C2(SCC(C(=O)NCc3ccccc3)N2C(=O)C2CCCCC2)c2ccccc21 (stereo not given) . Its measured growth is 117% (inactive)

Lab note: measured growth of COc1ccc(O)c(N=Nc2nccs2)c1 was 39.3% (inactive)

Reported growth for O=C(CCN1C(=O)/C(=C/c2ccc(Cl)cc2)SC1=S)NCCCN1CCOCC1 was 100% (inactive)

###

Consider the following molecules; for each one, report its growth.
System: HS 578T breast
Assay: NCI-60 one-dose screen, 48 h (100 = growth as untreated, 0 = no growth, -100 = all killed)
Conditions: 10 µM unless noted
The panel holds about 83,000 compounds, 20% with a hit somewhere; the sample as a whole holds those more often. Calls of active or inactive are those of the source. The calls were made as follows: active = growth percent below 10; inactive = the rest.

// Fc1ccc2[nH]cc(SSc3c[nH]c4ccc(F)cc34)c2c1 : growth value = -29.2% (active)

The reported value for O=C1/C(=C/c2ccccc2)SC(=S)N1CCc1ccc(O)cc1 in terms of growth is 76.9% (inactive)

Notebook: COc1cc2c(cc1-c1c(C)noc1C)ncc1nc(C3CCCCC3)n([C@H](C)COC(F)F)c12 , growth read as 18.9% (inactive)

Data point: Cc1cc2c3ccccc3ccc2[n+]2ccccc12 ; growth = -23.7% (active)

###

Test system: HOP-92 NSCLC
Assay: NCI-60 one-dose screen, 48 h
Conditions: 10 µM unless noted
About 83,000 compounds went through this panel and 20% of them were active in at least one assay; those are over-represented in the sample as a whole. Active and inactive are the calls of the source. Rule for the calls: active = growth percent below 10; inactive = the rest.
Form entry, call: pick from active, inactive

(Q) Returns: the outcome recorded for Cn1cc(C(=O)c2nc(-c3c[nH]c4ccc(F)cc34)no2)c2cc(F)ccc21 in this assay.
(A) inactive

(Q) Kindly provide the recorded test outcome for the following molecule: Cn1cc(-c2nonc2-c2cn(C)c3ccc(F)cc23)c2ccccc21
(A) inactive

(Q) Call for entry COc1ccc(CN2c3ccccc3Oc3ccccc32)cc1O :
(A) inactive

(Q) Which outcome was assigned to CNc1ccc(-c2cc(=O)oc3ccc(Cl)cc23)cc1 in this test?
(A) inactive

(Q) Short answer needed: outcome of this test for Oc1ccccc1-c1nnc(CNc2ccc(Cl)cc2)o1 ?
(A) inactive

(Q) Could you please tell me the result logged for CSc1ccc(SC2c3ccc(C)cc3Oc3nc(N)c(C#N)c(N)c32)cc1 (stereo not drawn) in this assay?
(A) active

(Q) Record request — test call for COc1ccc(/C=C(\C#N)C(=O)Nc2cccc(Nc3nc(SC)nc(-c4cccc([N+](=O)[O-])c4)c3C#N)c2)cc1OC
(A) inactive

(Q) # outcome recorded in this test, key = C=C(C)[C@@H]1CC[C@]2(C(N)=O)CC[C@]3(C)[C@H](CC[C@@H]4[C@@]5(C)C/C(=C/c6ccco6)C(=O)C(C)(C)[C@@H]5CC[C@]43C)[C@@H]12
(A) inactive

(Q) Could you kindly confirm the outcome this assay logged for CCOc1cc2ncc(C#N)c(Nc3ccc(OCc4cccc(F)c4)c(Cl)c3)c2cc1NC(=O)CC1CCSS1 (stereo not drawn) ?
(A) inactive

(Q) Recorded test outcome, item O=C1c2cc3c(cc2-c2c1c1ccc(F)cc1c(=O)n2C[C@H](O)[C@@H](O)[C@H](O)CO)OCO3
(A) active

(Q) Status in this test for C=C(C)[C@@H]1CC[C@]2(C(=O)OC)CC[C@]3(C)[C@H](CC[C@@H]4[C@@]5(C)C/C(=C/c6cccc(I)c6)C(=O)C(C)(C)[C@@H]5CC[C@]43C)[C@@H]12 ?
(A) inactive

(Q) Called result for C=C1c2nc3ccccc3n2C=C(c2cccc(Cl)c2)N1Cc1ccc(OC)cc1
(A) inactive

(Q) How was COc1ccc2c(c1)O/C(=C\c1cccc(OCC(=O)Nc3nc4c(s3)CCCC4)c1)C2=O classified in this test?
(A) active

(Q) Identify the outcome logged in this assay for the molecule shown: Nc1n[nH]c2ccc([C@@H]3Nc4cc5c(cc4[C@H]4C6CCC(C6)[C@@H]34)C(=O)NC5)cc12 (stereo partly drawn)
(A) inactive

(Q) For C=CC(COC(c1ccccc1)(c1ccccc1)c1ccccc1)N(CC)CC (stereo not drawn) , which call appears in the assay record?
(A) inactive

(Q) I would be grateful if you could indicate the recorded call for c1csc(C2=NN3C(C2)c2ccccc2OC3c2ccncc2)c1 (stereo not drawn) .
(A) inactive

(Q) Hello, I am checking results. What call was entered for COc1ccc(-c2cc(C(=O)N=Nc3c(O)[nH]c4ccc(Br)cc34)no2)cc1 ?
(A) inactive

(Q) Test call for this molecule, please: CCN(CC)S(=O)(=O)c1ccc(OC)c(NC(=O)c2[nH]c(C)c3c2CCCCC3=O)c1
(A) inactive

(Q) For this molecule, state the assay outcome: O=c1cc(CSc2nnc(-c3ccc(F)cc3)o2)c2ccc3ccccc3c2o1
(A) inactive

(Q) For this molecule, state the assay outcome: COC(=O)[C@@H]1CCCN1C(=O)[C@@H]1CCCN1C(=O)[C@H](Cc1ccccc1)NC(=S)Nc1cc(C(F)(F)F)cc(C(F)(F)F)c1
(A) inactive

(Q) Could you check what this test reported for O=C1Nc2ccc(Br)cc2C12Oc1ccccc1C1CC(c3ccc(F)cc3)=NN12 (stereo not drawn) ?
(A) inactive

(Q) Query: recorded result category for Cc1cc(NS(=O)(=O)c2ccc(-c3cnc(C4CC4)o3)cc2)ccc1Cl in this test
(A) inactive

(Q) Recorded call for O=C(CN1CCCCC1)Nc1ccc2oc(=O)ccc2c1 ?
(A) inactive

(Q) Record request — test call for O=c1ccccc(-c2ccc(Br)cc2)c1O
(A) inactive

(Q) Hi, sorry to bother you, what did the test record for CN1CCN(CCCOc2cccc3nc(Nc4ccc(Cl)c(F)c4)ccc23)CC1 ?
(A) inactive

(Q) Recorded call for O=[N+]([O-])c1ccccc1/C=N\NC(=S)N/N=C/c1ccccc1[N+](=O)[O-] ?
(A) inactive

(Q) Which outcome did this test record for the molecule COc1cc2c(cc1-c1c(C)noc1C)ncc1nc(C3CCC(F)(F)CC3)n([C@H](C)COC(F)F)c12 ?
(A) inactive

(Q) Short answer needed: outcome of this test for O=C1Nc2c(ccc(Cl)c2Cl)/C1=C\c1cc(C(F)(F)F)cc(C(F)(F)F)c1 ?
(A) active

(Q) Please state the recorded outcome for this molecule: O=C(COc1cccc(/C=C2\COc3ccccc3C2=O)c1)Nc1nccs1
(A) active

(Q) Outcome logged for COc1ccc(C(=O)COc2ccc(/C=C3\Oc4ccc(OC)cc4C3=O)cc2)cc1 in this assay:
(A) inactive

(Q) I would be grateful if you could indicate the recorded call for CN(Cc1cc(Cl)cc(Cl)c1O)Cc1cc(Cl)cc(Cl)c1O .
(A) inactive

(Q) Give the logged outcome of this assay for the following molecule: C=CC(=O)Nc1cccc(-c2nc(SC)nc(NCc3ccccc3)c2C#N)c1
(A) inactive

(Q) Recorded test call requested for O=[N+]([O-])c1ccc2c(c1)Cc1cc(F)ccc1-2
(A) inactive
